Data provenance is PubChem BioAssay AID652068.

The reader will find reported inhibition values listed item by item below.
experimental_details: displacement of TO-PRO-1 from CAG DNA duplex, counter-screen for rCAG RNA repeat binder project, biochemical, fluorescence, TO-PRO-1 dye, d(CAG) DNA oligo (AID 652068);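 also: 0% = DNA dye mix with DMSO and 100% = 100 µM mitoxantrone; hits displace the dye from DNA and so lower well fluorescence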
reported_conditions: d(CAG) DNA oligo TO-PRO-1 dye displacement, at 3 µM, hits give high values
Among all 4,300 compounds or so, about 4,000 (93%) were called active. So high a share suggests a set chosen from earlier hits. A selection follows.
Kindly provide the numeric value in % only, without the unit symbol.

// below: answered compounds
Cc1ccc(S(=O)(=O)N2[C@@H](c3ccc(Br)cc3)C(C(=O)O)=C[C@H]2CC2CCCC2)cc1	34.4
COc1ccc(/C=C/C(=O)c2ccc(NS(=O)(=O)c3ccc(C)cc3)cc2)cc1O	18.4
O=C(c1cccnc1)N(c1cc2sc(=O)oc2c2ccccc12)S(=O)(=O)c1ccccc1	20.1
Cc1ccc(SC(CC(=O)c2ccc(C(C)(C)C)cc2)C(=O)O)cc1 (stereo not drawn)	12.6
Cc1cc(N2C(=O)C(O)=C(C(=O)c3ccc(C)o3)C2c2ccc(OCc3ccccc3)cc2)no1 (stereo not drawn)	23.8
C=CCn1c(=S)[nH]c2scc(-c3ccco3)c2c1=O	15.4
NS(=O)(=O)c1ccc(N=Nc2c(O)[nH]c3ccc(Br)cc23)cc1	9.96
COc1ccccc1C1C(C#N)=C(N)Oc2c1c(-c1ccccc1)nn2-c1ccccc1 (stereo not drawn)	12
O=C(Nc1nc(-c2ccco2)c(-c2ccco2)s1)c1ccco1	16.6
COc1ccc(-c2cc(C(=O)NC(Cc3c[nH]c4ccccc34)C(=O)O)c(C)o2)cc1OC (stereo not drawn)	16.9

Q: Would you mind telling me what inhibition value was observed for C=C1c2c(Cl)ccc(O)c2C(O)=C2C(=O)[C@]3(O)C(O)=C(C(N)=O)C(=O)[C@@H](N(C)C)[C@@H]3[C@@H](O)C12 (stereo partly drawn) ?
Result: 38

Q: Using the record for CC(=O)Nc1ccc(S(=O)(=O)N(CCc2ccccc2)CC(=O)N/N=C/c2ccc(C(=O)O)cc2)cc1 , report its inhibition.
Result: 5.27

Q: Look up inhibition: COc1cccc(/C=N/Nc2ccc(S(=O)(=O)Nc3ccccc3C(=O)O)cc2[N+](=O)[O-])c1O
Result: 79.1

Q: inhibition lookup needed for Cc1cc(/C=C2/C(=N)N3C(=NC2=O)SN=C3S(C)(=O)=O)c(C)n1-c1ccccc1 , thanks.
Result: 53.2

Q: Recorded inhibition for CC(Oc1ccc2ccccc2c1)C(=O)NNC(=S)NC(=O)c1ccco1 (stereo not drawn) , please?
Result: 11.8

Q: Which inhibition is listed for Cc1sc2nc(SCC(=O)c3ccc(O)c(O)c3)n(Cc3ccco3)c(=O)c2c1C ?
Result: 31.4

Q: Can you look up the measured inhibition of CC(Oc1ccc2c(-c3ccccc3)cc(=O)oc2c1)C(=O)NC(Cc1c[nH]c2ccccc12)C(=O)O (stereo not drawn) for me?
Result: 16.9

Q: Entry under review: COc1cc(C2CC(=O)N3CN(Cc4ccccc4)CSC3=C2C#N)ccc1OCc1ccccc1 (stereo not drawn) . Reported inhibition?
Result: 12.4

Q: Name the reported inhibition value associated with the compound CC[C@@H](C)[C@H](NC(=O)CCc1c(C)c2cc3c4c(oc3c(C)c2oc1=O)CCCC4)C(=O)O
Result: 14.9

Q: Entry under review: CCOc1ccc(-n2c(O)c(/C=N/Nc3nnc(C)c(=O)[nH]3)c3ccccc3c2=O)cc1 . Reported inhibition?
Result: 22.9
